Kindly state ΔG for each of the entries shown.
- System name: CbpB (Acetivibrio thermocellus (Clostridium thermocellum), UniProt A3DE73, V209A/V350L)
- Sequence (A3DE73 entry or part of it V209A/V350L): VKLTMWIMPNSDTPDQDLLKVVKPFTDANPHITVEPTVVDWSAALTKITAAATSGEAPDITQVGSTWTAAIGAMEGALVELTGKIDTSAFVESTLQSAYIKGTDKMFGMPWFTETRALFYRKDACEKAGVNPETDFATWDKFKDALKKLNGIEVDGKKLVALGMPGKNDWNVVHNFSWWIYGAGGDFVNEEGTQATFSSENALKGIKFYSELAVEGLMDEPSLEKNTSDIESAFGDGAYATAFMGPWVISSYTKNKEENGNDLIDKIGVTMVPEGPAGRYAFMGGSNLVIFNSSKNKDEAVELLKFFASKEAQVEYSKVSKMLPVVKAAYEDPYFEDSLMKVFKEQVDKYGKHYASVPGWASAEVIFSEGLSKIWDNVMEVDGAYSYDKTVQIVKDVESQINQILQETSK
- Test details: ITC titration of carbohydrate ligands with CbpB
- Assay type: binding
- Condition parameters: ITC, 30°C
Answers are plain numbers, in kcal/mol.

>  <Compound>
O=C[C@H](O)[C@@H](O)[C@H](O[C@@H]1O[C@H](CO)[C@@H](O)[C@H](O)[C@H]1O)[C@H](O)CO [Cellobiose, cellobiose]

>  <System name>
CbpB (Acetivibrio thermocellus (Clostridium thermocellum), UniProt A3DE73, V209A/V350L)

>  <Measure unit>
kcal/mol

>  <ΔG>
-7.93

$$$$

For the 2 compounds below, give their ΔG values.
1. OC[C@H]1O[C@@H](O[C@H]2[C@H](O)[C@@H](O)[C@H](O[C@H]3[C@H](O)[C@@H](O)[C@H](O[C@H]4[C@H](O)[C@@H](O)C(O)O[C@@H]4CO)O[C@@H]3CO)O[C@@H]2CO)[C@H](O)[C@@H](O)[C@@H]1O (some centres unmarked) [Cellotetraose, cellotetraose]
2. OC[C@H]1O[C@@H](O[C@H]2[C@H](O)[C@@H](CO)OC(O)[C@@H]2O)[C@H](O)[C@@H](O)[C@@H]1O (some centres unmarked) [Laminaribiose, laminaribiose]

Ans.
1. -8.68
2. -6.91

For the 2 compounds below, give their ΔG values.
1. OC[C@H]1O[C@@H](O[C@H]2[C@H](O)[C@@H](O)[C@H](O[C@H]3[C@H](O)[C@@H](O)C(O)O[C@@H]3CO)O[C@@H]2CO)[C@H](O)[C@@H](O)[C@@H]1O (some centres unmarked) [Cellotriose, cellotriose]
2. OC[C@H]1O[C@@H](O[C@H]2[C@H](O)[C@@H](O)[C@H](O[C@H]3[C@H](O)[C@@H](O)[C@H](O[C@H]4[C@H](O)[C@@H](O)[C@H](O[C@H]5[C@H](O)[C@@H](O)C(O)O[C@@H]5CO)O[C@@H]4CO)O[C@@H]3CO)O[C@@H]2CO)[C@H](O)[C@@H](O)[C@@H]1O (some centres unmarked) [Cellopentaose, cellopentaose]

Ans.
-8.25
-8.58

These entries and their values trace back to paper PMC9601137.
